// data source = patent US7872045B2

# testedTarget: human EP3 receptor (hEP3, D isoform) (Homo sapiens)
# Construct: plasma membrane fraction
# Sequence (P43115 1-374 isoform P43115-4): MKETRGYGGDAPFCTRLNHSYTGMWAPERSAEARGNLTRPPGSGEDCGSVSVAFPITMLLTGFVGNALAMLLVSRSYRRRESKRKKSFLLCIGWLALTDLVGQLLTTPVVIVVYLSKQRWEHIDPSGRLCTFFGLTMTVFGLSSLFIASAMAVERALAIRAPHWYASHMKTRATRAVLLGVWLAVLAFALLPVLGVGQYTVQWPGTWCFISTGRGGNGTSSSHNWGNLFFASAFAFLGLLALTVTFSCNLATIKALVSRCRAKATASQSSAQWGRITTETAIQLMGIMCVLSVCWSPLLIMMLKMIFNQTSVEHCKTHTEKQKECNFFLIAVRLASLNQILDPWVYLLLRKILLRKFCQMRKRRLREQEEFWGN
# assaySummary: Radioligand binding competition vs [3H]PGE2, human recombinant EP3 receptor
# experimentalParameters: [3H]PGE2 competition, plasma membranes of transfected cells (COS-7 transient; HEK-293 also named), 60 min 25° C.
parameter: IC50

Task: What value of IC50 has been reported for the following compound? C[C@@](O)(/C=C/[C@H]1[C@H](O)CC(=O)[C@@H]1SCCCSCC(=O)O)CCc1cc2ccccc2s1 [Example 34L]
Result: > 10 µM

Task: What value of IC50 has been reported for the following compound? CC(O)(/C=C/[C@H]1[C@H](O)CC(=O)[C@@H]1SCCCSCC(=O)O)CCc1ccc2ccccc2c1 (stereo partly drawn) [Example 28L]
Result: > 10 µM

Task: What value of IC50 has been reported for the following compound? O=C(O)CSCCCS[C@H]1C(=O)C[C@@H](O)[C@@H]1/C=C/C(O)CCc1ccc2ccccc2c1 (single isomer, unassigned) [Example 10L]
Result: 8.3 µM
